Attribute: inhibition at 1 µM
target: dopaminergic D3 receptor (Homo sapiens); assay: Binding assay D3 (h), [3H]methyl-spiperone, CHO cells; parameters: expressed in transfected cells; host or cells: CHO cells; conditions: read-out: D3 [%]
Sequence (P35462 whole entry): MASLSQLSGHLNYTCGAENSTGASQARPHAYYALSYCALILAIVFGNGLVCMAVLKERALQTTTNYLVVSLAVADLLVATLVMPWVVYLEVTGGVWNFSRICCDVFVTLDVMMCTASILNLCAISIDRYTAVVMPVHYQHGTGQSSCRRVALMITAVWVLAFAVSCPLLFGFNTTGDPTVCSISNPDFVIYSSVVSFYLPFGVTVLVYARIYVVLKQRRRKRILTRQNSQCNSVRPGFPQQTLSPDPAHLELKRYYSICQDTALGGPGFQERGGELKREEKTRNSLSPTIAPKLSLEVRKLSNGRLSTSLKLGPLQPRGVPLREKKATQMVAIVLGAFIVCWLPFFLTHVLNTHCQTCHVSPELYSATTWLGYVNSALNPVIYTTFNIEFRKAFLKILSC

{"compound": "O=S(=O)(NCCCCN1CCN(c2cccc3[nH]ccc23)CC1)c1cc2ccc(Cl)cc2s1 [Compound 363]", "inhibition at 1 µM": "101%"}
{"compound": "O=C1COc2c(cccc2N2CCN(CCCCNS(=O)(=O)c3ccc(Cl)s3)CC2)N1 [Compound 431]", "inhibition at 1 µM": "103%"}
{"compound": "O=S(=O)(NCCCN1CCC(c2noc3cc(F)ccc23)CC1)c1ccc(Br)cc1 [Compound 330]", "inhibition at 1 µM": "99%"}
{"compound": "O=S(=O)(NCCCN1CCC(c2noc3cc(F)ccc23)CC1)c1cccc(Br)c1 [Compound 110]", "inhibition at 1 µM": "97%"}
{"compound": "O=S(=O)(NCCCCN1CCN(c2nsc3ccccc23)CC1)c1cccc2ccccc12 [Compound 1]", "inhibition at 1 µM": "96%"}
{"compound": "O=S(=O)(NCCCCN1CCN(c2cccc3[nH]ccc23)CC1)c1ccccc1 [Compound 27]", "inhibition at 1 µM": "96%"}
{"compound": "N#Cc1cccc(S(=O)(=O)NCCCCN2CCN(c3nsc4ccccc34)CC2)c1 [Compound 73]", "inhibition at 1 µM": "94%"}
{"compound": "O=S(=O)(NCCCN1CCC(c2noc3cc(F)ccc23)CC1)c1cc2ccccc2o1 [Compound 349]", "inhibition at 1 µM": "100%"}
